Source of measurements: BindingDB's records for doi:10.1021/jm030121k

Target: Mitogen-activated protein kinase 14 (Mus musculus)
Sequence (P47811 whole entry): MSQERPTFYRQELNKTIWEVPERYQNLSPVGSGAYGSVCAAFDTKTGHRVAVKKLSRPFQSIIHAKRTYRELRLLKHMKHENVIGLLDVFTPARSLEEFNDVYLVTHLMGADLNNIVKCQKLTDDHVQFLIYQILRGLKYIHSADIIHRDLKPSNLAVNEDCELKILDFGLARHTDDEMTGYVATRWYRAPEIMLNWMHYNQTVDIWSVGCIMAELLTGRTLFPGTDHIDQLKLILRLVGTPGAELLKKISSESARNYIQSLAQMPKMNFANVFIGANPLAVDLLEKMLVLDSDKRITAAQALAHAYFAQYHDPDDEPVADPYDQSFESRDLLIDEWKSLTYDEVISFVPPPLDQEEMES
Test: UV-Thermal Melt
result-type: Kd (µM)

mol_smiles=Cc1ccc(-n2nc(C(C)(C)C)cc2NC(=O)Nc2cccc3ccccc23)cc1 experimental_system="Mitogen-activated protein kinase 14 (Mus musculus)" endpoint_value=0.011
